- Tested on: HNSC
- Experiment: growth inhibition (% activity, log2 RLU normalised to DMSO / staurosporine); higher = more growth inhibition
- Measurement setup: 33 µM
Measured growth inhibition by item
State the answer as a number, implicitly in %.

Some entries whose results are on file:
{"Compound": "NS(=O)(=O)c1cc2c(cc1Cl)NCNS2(=O)=O", "Readout value": -1.69}
{"Compound": "C=C[C@]1(C)C[C@@H](OC(=O)CS[C@@H]2C[C@H]3CC[C@@H](C2)N3C)[C@]2(C)[C@H](C)CC[C@]3(CCC(=O)[C@H]32)[C@@H](C)[C@@H]1O", "Readout value": 7.78}
{"Compound": "CNC1CCCN(c2c(F)cc3c(=O)c(C(=O)O)cn(C4CC4)c3c2OC)C1 (stereo not drawn)", "Readout value": -1.65}
{"Compound": "Cc1cc(=O)[nH]c(=S)[nH]1", "Readout value": 4.39}

Please report the recorded growth inhibition for COc1ccccc1N1CCN(CC(O)COc2cccc3ccccc23)CC1 (stereo not drawn) .
0.281

Please report the recorded growth inhibition for CC(C)(O)c1ccccc1CC[C@@H](SCC1(CC(=O)O)CC1)c1cccc(/C=C/c2ccc3ccc(Cl)cc3n2)c1 .
-3.15

Please report the recorded growth inhibition for CCN[C@@H]1C[C@H](N)[C@@H](O[C@H]2OC(CN)=CC[C@H]2N)[C@H](O)[C@H]1O[C@H]1OC[C@](C)(O)[C@H](NC)[C@H]1O .
8.55

Please report the recorded growth inhibition for C[C@]12C=CC(=O)C=C1CC[C@@H]1[C@@H]2[C@@H](O)C[C@@]2(C)[C@H]1CC[C@]2(O)C(=O)CO .
1.3

Please report the recorded growth inhibition for NS(=O)(=O)c1cc(Cl)c(Cl)c(S(N)(=O)=O)c1 .
21.2

---

- System: DIPGX37 (H3.3 K27M diffuse intrinsic pontine glioma line)
- Experiment: growth inhibition (% activity, log2 RLU normalised to DMSO / staurosporine); higher = more growth inhibition
- Measurement setup: 33 µM
Measured growth inhibition by item
State the answer as a number, implicitly in %.

{"Structure smiles": "CCc1c(Cl)c(O)c(Cl)c(O)c1C(=O)O[C@H]1[C@H](O)[C@H](OC)[C@H](OC/C2=C\\C=C\\C[C@H](O)/C(C)=C/[C@H](CC)[C@@H](O[C@@H]3OC(C)(C)[C@@H](OC(=O)C(C)C)[C@H](O)[C@@H]3O)/C(C)=C/C(C)=C/C[C@@H]([C@@H](C)O)OC2=O)O[C@@H]1C", "growth inhibition [%]": 2.16}

Please report the recorded growth inhibition for CCOc1ccc2ccccc2c1C(=O)N[C@@H]1C(=O)N2[C@@H]1SC(C)(C)[C@@H]2C(=O)O .
-0.795

Please report the recorded growth inhibition for COc1ccccc1N1CCN(CCCNc2cc(=O)n(C)c(=O)n2C)CC1 .
2.3

---

- System: SUDIPGIV (diffuse intrinsic pontine glioma line)
- Experiment: growth inhibition (% activity, log2 RLU normalised to DMSO / staurosporine); higher = more growth inhibition
- Measurement setup: 33 µM
Property: growth inhibition
Please answer using the number first and the unit second.

Some entries whose results are on file:
{"Compound": "CC(C)[C@H](N)C(=O)OCC(CO)OCn1cnc2c(=O)[nH]c(N)nc21 (some centres not stated)", "Assayed system": "SUDIPGIV", "growth inhibition": "0.2%"}
{"Compound": "O=c1oc2c(O)c(O)cc3c(=O)oc4c(O)c(O)cc1c4c23", "Assayed system": "SUDIPGIV", "growth inhibition": "-0.815%"}
{"Compound": "Oc1ccc(OCc2ccccc2)cc1", "Assayed system": "SUDIPGIV", "growth inhibition": "-2.99%"}
{"Compound": "CC(C)(C)C(=O)C(Oc1ccc(Cl)cc1)n1ccnc1 (configuration not stated)", "Assayed system": "SUDIPGIV", "growth inhibition": "7.06%"}
{"Compound": "CCN(CC)CCNC(C(=O)OCCC(C)C)c1ccccc1 (configuration not stated)", "Assayed system": "SUDIPGIV", "growth inhibition": "1.14%"}

Please report the recorded growth inhibition for CC1CNc2c(cccc2S(=O)(=O)N[C@@H](CCCNC(=N)N)C(=O)N2CC[C@@H](C)C[C@@H]2C(=O)O)C1 (some centres not stated) .
1.8%

Please report the recorded growth inhibition for CNCC[C@@H](Oc1ccccc1C)c1ccccc1 .
3.36%

Please report the recorded growth inhibition for CC(=O)O[C@]1(C(C)=O)CC[C@H]2[C@@H]3C=C(C)C4=CC(=O)CC[C@]4(C)[C@H]3CC[C@@]21C .
-1.52%

Please report the recorded growth inhibition for Oc1c(Br)cc(Br)c2cccnc12 .
0.619%

Please report the recorded growth inhibition for N[C@H](Cc1ccccc1)C(=O)O .
3.32%

Please report the recorded growth inhibition for O=C(c1ccccc1)c1ccc2n1CCC2C(=O)O (configuration not stated) .
-5.47%

Please report the recorded growth inhibition for Cc1c(Nc2ncccc2C(=O)O)cccc1C(F)(F)F .
-3.76%

---

- Tested on: HNSC
- Experiment: growth inhibition (% activity, log2 RLU normalised to DMSO / staurosporine); higher = more growth inhibition
- Measurement setup: 33 µM
Measured growth inhibition by item
State the answer as a number, implicitly in %.

Some entries whose results are on file:
{"Compound": "O=C(Nc1cccc2c(=O)cc(-c3nnn[nH]3)oc12)c1ccc(OCCCCc2ccccc2)cc1", "Readout value": 52.4}
{"Compound": "CO[C@H]1/C=C/O[C@@]2(C)Oc3c(C)c(O)c4c(O)c(c5c(nc6cc(C)ccn65)c4c3C2=O)NC(=O)/C(C)=C\\C=C\\[C@H](C)[C@H](O)[C@@H](C)[C@@H](O)[C@@H](C)[C@H](OC(C)=O)[C@@H]1C", "Readout value": 0.942}
{"Compound": "C[C@H]1C[C@H]2[C@@H]3CCC4=CC(=O)C=C[C@]4(C)[C@H]3C(=O)C[C@]2(C)[C@@]1(O)C(=O)CO", "Readout value": -1.41}
{"Compound": "Cc1nc(Nc2ncc(C(=O)Nc3c(C)cccc3Cl)s2)cc(N2CCN(CCO)CC2)n1", "Readout value": 20}
{"Compound": "C=CCNC(N)=S", "Readout value": -1.32}
{"Compound": "CC(=O)O[C@H]1C(=O)[C@@]2(C)[C@H]([C@H](OC(=O)c3ccccc3)[C@]3(O)C[C@H](OC(=O)[C@H](O)[C@@H](NC(=O)c4ccccc4)c4ccccc4)C(C)=C1C3(C)C)[C@]1(OC(C)=O)CO[C@@H]1C[C@@H]2O", "Readout value": 60.4}
{"Compound": "Nc1nc(NC2CC2)c2ncn([C@H]3C=C[C@@H](CO)C3)c2n1", "Readout value": 0.755}
{"Compound": "Cn1c(CNc2ccc(C(=N)N)cc2)nc2cc(C(=O)N(CCC(=O)O)c3ccccn3)ccc21", "Readout value": 6.58}
{"Compound": "C#C[C@]1(OC(C)=O)CC[C@H]2[C@@H]3CCC4=C[C@@H](OC(C)=O)CC[C@@H]4[C@H]3CC[C@@]21C", "Readout value": 1.57}

Now consider a different compound.
Please report the recorded growth inhibition for Nc1cccc2c1CN(C1CCC(=O)NC1=O)C2=O (stereo not given) .
4.5

---

- Test system: SUDIPGXIII (diffuse intrinsic pontine glioma line)
- Experiment: growth inhibition (% activity, log2 RLU normalised to DMSO / staurosporine); higher = more growth inhibition
- Measurement setup: 33 µM
Property: growth inhibition (%)
State the answer as a number, implicitly in %.

{"Molecule": "COc1cc2nc(N3CCN(C(=O)C4CCCO4)CC3)nc(N)c2cc1OC (stereo not drawn)", "growth inhibition, %": -3.7}
{"Molecule": "Cc1cccc(C)c1OCC(=O)N[C@@H](Cc1ccccc1)[C@@H](O)C[C@H](Cc1ccccc1)NC(=O)[C@H](C(C)C)N1CCCNC1=O", "growth inhibition, %": -0.606}

Now consider a different molecule.
Please report the recorded growth inhibition for CCCNC(=O)NS(=O)(=O)c1ccc(Cl)cc1 .
0.944

---

- Tested on: SUDIPGIV
- Experiment: growth inhibition (% activity, log2 RLU normalised to DMSO / staurosporine); higher = more growth inhibition
- Measurement setup: 33 µM
Measured growth inhibition by item
State the answer as a number, implicitly in %.

Some entries whose results are on file:
{"Structure smiles": "O=S(=O)(O)c1cc(O)ccc1O", "Unit of measurement": "%", "growth inhibition": -3.95}
{"Structure smiles": "CCCc1nn(C)c2c(=O)[nH]c(-c3cc(S(=O)(=O)N4CCN(C)CC4)ccc3OCC)nc12", "Unit of measurement": "%", "growth inhibition": -2.48}
{"Structure smiles": "C=CCNC(N)=S", "Unit of measurement": "%", "growth inhibition": -1.24}

Now consider a different compound.
Please report the recorded growth inhibition for C[C@@H](O)[C@H]1C(=O)N2C(C(=O)O)=C(S[C@@H]3CN[C@H](CNS(N)(=O)=O)C3)[C@H](C)[C@H]12 .
-1.38

Cited source: the supplement of paper PMC8253809
